assay: in vivo; details: C57BL/6, mouse, po, 4000 mg/kg
Quantity Measured: AUC(0-inf) (ng·h/mL)
All answers are understood in ng·h/mL, so give the number only.

                                   compound  quantity_measured  result_unit  observed_measurement
0  O=C1CCC[C@@H]2[C@H]3CCCN4CCC[C@@H](CN12)[C@@H]34 [MATRINE]         AUC(0-inf)      ng·h/mL                  5370

Could you now consider this next compound?
Oc1ccc2c(c1)OCC1c3cc4c(cc3OC21)OCO4 (configuration not stated) yielded AUC(0-inf) of 27.5
